- SYSTEM_TESTED: T1, human MAdCAM expressed on cells (human, UniProt Q13477 19-382)
- T1 construct: whole, on cells
- T1 sequence (looked up): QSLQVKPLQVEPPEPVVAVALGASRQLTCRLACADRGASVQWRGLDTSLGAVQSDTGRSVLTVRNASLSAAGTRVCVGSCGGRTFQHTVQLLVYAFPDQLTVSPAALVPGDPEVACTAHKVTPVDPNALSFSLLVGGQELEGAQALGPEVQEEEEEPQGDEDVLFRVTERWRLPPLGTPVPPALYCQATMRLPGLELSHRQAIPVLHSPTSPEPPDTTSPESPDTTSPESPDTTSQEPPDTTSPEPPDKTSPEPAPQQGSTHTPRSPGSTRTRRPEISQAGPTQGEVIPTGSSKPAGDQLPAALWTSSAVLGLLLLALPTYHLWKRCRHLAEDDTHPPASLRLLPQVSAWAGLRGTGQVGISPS
- PROCEDURE_TEXT: cell binding
MEASURED_PARAMETER: binding result

Query block: Which binding result is reported for this binder? MAdCAM antibody Table 1 clone 44 (scFv) scFv: EVQLVESGGGLVKPGGSLRLSCAASGFTFSSYWMSWVRQAPGKGLEWVSAIGTGGGTYYAAPVKGRFTISRDDSKNTLYLQMNSLKTEDTAVYYCAREWLVPYYGMDVWGQGTTVTVSSGGGGSGGGGSGGGGSGGGGSDIQMTQSPSSLSASVGDRVTITCRASQSISRWLAWYQQKPGKAPKLLIYGASNLQSGVPSRFSGSGSGTDFTLTISSLQPEDFATYYCQQSYSTPWTFGQGTKVEIK
Result block: binds

Query block: # input binder: MAdCAM antibody Table 1 clone 23 (scFv) scFv: EVQLLESGGGLVQPGGSLRLSCAASGFTFSSYAMHWVRQAPGKGLEWVSGISGSGGSAYYADSVKGRFTISRDNSKNTLYLQMNSLRAEDTAVYYCATSQAPVDYYYYGMDVWGQGTTVTVSSGGGGSGGGGSGGGGSGGGGSDIQMTQSPSSLSASVGDRVTITCRASQSISSWLAWYQQKPGKAPKLLIYAASNLQRGVPSRFSGSGSGTDFTLTISSLQPEDFATYYCQQSYSIPITFGQGTKVEIK ; wanted: its binding result
Result block: binds

Query block: Could you share which binding result value was measured for MAdCAM antibody Table 1 clone 53 (scFv) scFv: QVQLVQSGAEVKKPGASVKVSCKASGYTFTSYDINWVRQAPGQGLEWMGWMNPNSGNTGYAQKFQGRVTMTRDTSTSTVYMELSSLRSEDTAVYYCAKDSDYSNLLWDYWGQGTLVTVSSGGGGSGGGGSGGGGSGGGGSDIQMTQSPSSLSASVGDRVTITCRASQDITNDLGWYQQKPGKAPKLLIYQASSLESGVPSRFSGSGSGTDFTLTISSLQPEDFATYYCQQSYTIPLTFGQGTKVEIK ?
Result block: binds
